# Tested system: GABA-A receptor; anion channel
# Test summary: In vitro binding affinity at benzodiazepine receptor of rat cerebral cortical membranes by [3H]diazepam displacement.
pIC50: −log10 of the molar value.
Measured endpoint: pIC50

>>> observed_value("CCC(C)Oc1cc2c3ccccc3nc-2c[nH]1 (stereo not drawn)")
6.33
>>> observed_value("CC(C)CCOc1cc2c3ccccc3nc-2c[nH]1")
6.27
>>> observed_value("CC(C)COc1cc2c(cn1)[nH]c1ccccc12")
7.03

1. CC(C)(C)COc1cc2c3ccccc3nc-2c[nH]1
2. CC(C)(C)C(=O)c1cc2c3ccccc3nc-2c[nH]1
Between 1 and 2 , whose measured pIC50 reads higher? Answer by quoting the chosen item's label.
1

Just for reference, ChEMBL document CHEMBL1125333 is where these values come from.
